Below, Ki values reported for Melanocortin receptor 4 (Homo sapiens, UniProt P32245) across several publications.
Numbers only, in nM.

Example compounds with recorded Ki:
COCC(=O)N[C@H](Cc1ccc(Cl)cc1)C(=O)N1CCN(C2(CNC(=O)Cc3ccccc3)CCCCC2)CC1; 170
CCN(Cc1ccncc1)CC1(N2CCN(C(=O)[C@H]3CN(C(C)C)C[C@@H]3c3ccc(Cl)cc3)CC2)CCCCC1; 1300
O=C(Cc1ccccc1)NCC1(N2CCN(C(=O)[C@@H](Cc3ccc(Cl)cc3)NC(=O)Cc3cccs3)CC2)CCCCC1; 80
CC(C)CC(O)c1ccccc1N1CCN(C(=O)[C@@H](Cc2ccc(Cl)cc2Cl)NC(=O)CCN)CC1 (stereo partly drawn); 8.1
CNC1CCN(/C(=N/c2ccc(C(=O)NCCc3ccc(Cl)cc3Cl)cc2)NC2CCCCC2)C1 (stereo not drawn); 1400
CN(C)CCN(Cc1ccccc1)Cc1ccccc1N1CCN(C(=O)[C@@H](Cc2ccc(Cl)cc2)NC(=O)[C@H]2Cc3ccccc3CN2)CC1; 22

Kindly review the next compound as well.
Enquiry: Give the value of Ki reported for the following: `N=C(N)NCCNC(=O)[C@H]1C[C@@H](OCc2ccc3ccccc3c2)CN1C(=O)[C@@H](Cc1ccccc1)NC(=O)[C@@H]1Cc2ccccc2CN1`
Return: 411

====

Below, log10 Ki values reported for UniProtKB P32245 across several publications.
Values are log10 of Ki in µM.

Example compounds with recorded log10 Ki:
CCN(CC)CCCC(C)N=C(N)NC(=O)c1cccc(Cl)c1CCc1cc(Br)ccc1OC (centres undefined); -3.08
O=C(N[C@H](Cc1ccc(Cl)cc1)C(=O)N1CCN(c2ccccc2CNCCCN2CCCC2=O)CC1)[C@H]1Cc2ccccc2CN1; -0.57
COc1ccccc1CNCC1(N2CCN(C(=O)[C@H]3CN(C(C)C)C[C@@H]3c3ccc(Cl)cc3)CC2)CCCCC1; -1.21
CCN(CC)C[C@@H](c1ccccc1F)N1CCN(C)CC1; -0.95
CNC(=O)[C@H](Cc1ccc2ccccc2c1)N1CCN(C(=O)[C@@H](Cc2ccccc2)NC(=O)[C@H](Cc2ccc(O)cc2)NC(C)=O)[C@@H](CCCN=C(N)N)C1=O; -3.22

For each listed entry, give its log10 Ki.
1. Cc1c(CNCC2(N3CCN(C(=O)[C@H]4CN(C(C)C)C[C@@H]4c4ccc(Cl)cc4)CC3)CCCCC2)cnn1C
2. N=C(N)NCCC[C@@H]1C[C@@H](OCc2ccc3ccccc3c2)CN1C(=O)[C@@H](Cc1ccccc1)NC(=O)[C@@H]1Cc2ccccc2CN1
3. NCCC(=O)N1C[C@H](C(=O)N2CCN(C3(CNCc4ccccc4)CCCCC3)CC2)[C@@H](c2ccc(Cl)cc2)C1
4. COc1ccc([C@@H]2CN(C(C)C)C[C@H]2C(=O)N2CCN(c3ccc(C(F)(F)F)cc3[C@@H](N)CC(C)C)CC2)cc1

Return:
1: -1.96; 2: 0.64; 3: -0.96; 4: -1.17

For each listed entry, give its log10 Ki.
1. CC(C)C[C@H](N)c1ccccc1N1CCN(C(=O)[C@H](C)Cc2ccc(Cl)cc2)CC1
2. CCCC[C@H](NC(=O)[C@@H](NC(=O)[C@@H](N)Cc1ccc(O)cc1)C(C)C)C(=O)NCC(=O)N[C@@H](Cc1c[nH]cn1)C(=O)N[C@H](Cc1ccc2ccccc2c1)C(=O)N[C@@H](CCCN=C(N)N)C(=O)N[C@H](Cc1ccc2ccccc2c1)C(=O)N[C@@H](CC(=O)O)C(=O)N[C@@H](CCCN=C(N)N)C(=O)N[C@@H](Cc1ccccc1)C(=O)NCC(N)=O

Return:
-1.10
-2.34

For each listed entry, give its log10 Ki.
1. CC(C)[C@H](N)c1cccc(F)c1N1CCN(C(=O)[C@@H]2CN(C3CCC3)C[C@H]2c2ccc(Cl)cc2)CC1
2. CC(C)N1C[C@H](C(=O)N2CCN(C3(CNS(=O)(=O)c4ccccc4)CCCCC3)CC2)[C@@H](c2ccc(Cl)cc2)C1
3. C=CC(C)C(O)c1ccccc1N1CCN(C(=O)[C@@H](Cc2ccc(Cl)cc2Cl)NC(=O)CCN)CC1 (some centres undefined)

Return:
1. -1.49
2. -0.48
3. -1.54
